experiment: Molar enthalpy of transition or fusion; conditions: Crystal; DSC
Use yes (1) when the recorded Molar enthalpy of transition or fusion is no lower than 10 kcal/mol; use no (0) when it is lower.

Look over these answered cases.
{"COMPOUND": "O=c1c(O[C@@H]2O[C@H]([C@H](O)CO)[C@H](O)[C@H]2O)c(-c2ccc(O)c(O)c2)oc2cc(O)cc(O)c12 [isoquercitrin]", "CLASS": "yes (1)"}
{"COMPOUND": "O=c1cc(-c2ccccc2)oc2cc(O)cc(O)c12 [5,7-dihydroxyflavone]", "CLASS": "no (0)"}
{"COMPOUND": "COc1ccc([C@@H]2CC(=O)c3c(O)cc(O)cc3O2)cc1O", "CLASS": "no (0)"}

Entry O=C1CC(c2ccc(O)cc2)Oc2cc(O)cc(O)c21 (stereo unspecified) [4',5,7-trihydroxyflavanone] : is its Molar enthalpy of transition or fusion no less than 10 kcal/mol?
no (0)

Entry C[C@@H]1O[C@@H](OC[C@H]2O[C@@H](Oc3c(-c4ccc(O)c(O)c4)oc4cc(O)cc(O)c4c3=O)[C@H](O)[C@@H](O)[C@@H]2O)[C@H](O)[C@H](O)[C@H]1O [rutin] : is its Molar enthalpy of transition or fusion no less than 10 kcal/mol?
yes (1)

---

molar heat capacity at constant pressure values for the compounds below.
test: molar heat capacity at constant pressure; settings: 323.1 K; 101.33 kPa; Crystal; Small sample (50 mg) DSC
# value in J/K/mol; strip the unit string

Here are 5 compounds together with their reported answers.
{"COMPOUND": "O=c1c(O[C@@H]2O[C@H]([C@H](O)CO)[C@H](O)[C@H]2O)c(-c2ccc(O)c(O)c2)oc2cc(O)cc(O)c12 [isoquercitrin]", "RESULT_UNIT": "J/K/mol", "ENDPOINT_VALUE": 947.9}
{"COMPOUND": "O=C1CC(c2ccc(O)cc2)Oc2cc(O)cc(O)c21 (stereo unspecified) [4',5,7-trihydroxyflavanone]", "RESULT_UNIT": "J/K/mol", "ENDPOINT_VALUE": 259.7}
{"COMPOUND": "C[C@@H]1O[C@@H](OC[C@H]2O[C@@H](Oc3c(-c4ccc(O)c(O)c4)oc4cc(O)cc(O)c4c3=O)[C@H](O)[C@@H](O)[C@@H]2O)[C@H](O)[C@H](O)[C@H]1O [rutin]", "RESULT_UNIT": "J/K/mol", "ENDPOINT_VALUE": 915}
{"COMPOUND": "COc1ccc([C@@H]2CC(=O)c3c(O)cc(O)cc3O2)cc1O", "RESULT_UNIT": "J/K/mol", "ENDPOINT_VALUE": 906}
{"COMPOUND": "O=c1c(O)c(-c2ccc(O)c(O)c2)oc2cc(O)cc(O)c12 [quercetin]", "RESULT_UNIT": "J/K/mol", "ENDPOINT_VALUE": 585.9}

Here's the next entry for you.
Which molar heat capacity at constant pressure value is on record for O=c1cc(-c2ccccc2)oc2cc(O)cc(O)c12 [5,7-dihydroxyflavone] ?
200.6

---

conditions: Crystal; DTA
Use yes when the recorded Normal melting temperature is no lower than 200 °C; use no when it is lower.

Look over these answered cases.
{"COMPOUND": "O=c1c(O)c(-c2ccc(O)c(O)c2)oc2cc(O)cc(O)c12", "CLASS": "yes"}
{"COMPOUND": "C[C@@H]1O[C@@H](OC[C@H]2O[C@@H](Oc3c(-c4ccc(O)c(O)c4)oc4cc(O)cc(O)c4c3=O)[C@H](O)[C@@H](O)[C@@H]2O)[C@H](O)[C@H](O)[C@H]1O", "CLASS": "no"}
{"COMPOUND": "O=c1cc(-c2ccccc2)oc2cc(O)cc(O)c12 [5,7-dihydroxyflavone]", "CLASS": "yes"}
{"COMPOUND": "O=C1CC(c2ccc(O)cc2)Oc2cc(O)cc(O)c21 (stereo unspecified) [4',5,7-trihydroxyflavanone]", "CLASS": "yes"}

Here's the next entry for you.
Entry `COc1ccc([C@@H]2CC(=O)c3c(O)cc(O)cc3O2)cc1O` : is its Normal melting temperature no less than 200 °C?
yes
